protocol_summary: yeast display, Sf9 membrane polyspecificity reagent, FACS + sequencing; frameworks hold sequencing errors
property_label: polyreactivity (PSR sort gate)

Consider the following illustrative entries.
| biosequence | polyreactivity (PSR sort gate) |
| --- | --- |
| QVQLVESGGGLVQAGGSLRLSCAASGRILRYNAMGWYRQAAGKERELVAAISSGGSTYADSVKGRFTISRDNAKNTVYLQMNSLKPDDTAVYYCNAPSVGAAFDYWGQGTQVTVSS | high polyreactivity |
| QVQLVESGGGLVQAGGSLRLSCAASGNTFRSYVMGWYRQAPGKERELVADISSGDGTNYADSVKGRFTISRDNAKNTVYLQMNSLKPEDTAVYYCAKDVYNFRTTHSYFTGYDSWGQGTQVTVSS | low polyreactivity |
| QVQLVESGGGLVQAGGSLRISCAASGRTFWRNAMGWYRQAPAKERELVAAISRGGSTNYADSVKGRFTISRDNAKNTVYLQMNSLKPEDTAVYYCAARYYYRYNYWGQGTQVTVSS | high polyreactivity |
| QVQLVESGGGFVQAGGSLRLSCAASGSTFKTYTLGWYRQAPGKDRELVAGITSGGSTSYADSVKGRFTISRDNAKNTVYLQMNSLKPEATAVYYCNADAYLVIYFYTVRDYGYDYWGQGTQVTVSS | low polyreactivity |
| QVQLVESGGGLVQAGGSLRLSCAASGRIFQPNAMGWYRQAPGKEREFVAAISSSGGYTFYADSVKGRFTISRDNAKNTVYLQMNSLKPEDTAVYYCAKRYGYTEYFYWGQGSQVTVSS | high polyreactivity |

Consider the sequence shown here: QVQLVESGGGLVQAGGSLRLSCAASGITFYNSAMGLYRQAPGKERELVAAISSSGGSTYYADSVKGRFTISRDNAKNTVYLQMNSLKPEDTAVYYCAAVIVLSSEDTYYYWGQGTQVTVSS What is its recorded polyreactivity (PSR sort gate)?
high polyreactivity

Which measured polyreactivity (PSR sort gate) value corresponds to QVQLVESGGGLVQAGGSLRLSCAASGRIFRWNAMGWYRQAPGKERELVAAISWNGGRTYYADSVKGRFTISRDNAKNTVYLQMNSLKPEDTAVYYCAAPHSVPDLHSGDYWGQGSQVTVSS ?
low polyreactivity

Give its polyreactivity (PSR sort gate) value. Item: QVQLVESGGCLVQAGGSLRLSCAASGRTFRWYAMGWYRQAPGKESELVAAINPGGSTNYADSVKGRFSISRDNAKNTVYLQMNSLKPEDTAVYYCNAAGYDALTHNYYWGQGTQVTVSS
low polyreactivity

---

protocol_summary: yeast display, Sf9 membrane polyspecificity reagent, FACS + sequencing; frameworks hold sequencing errors

| biosequence | polyreactivity (PSR sort gate) |
| --- | --- |
| QVQLVESGGGLVQAGGSLRLSCAASGRNFKYNAMGSYRTAPGKERELVAAISSGGSTKYADSVKGRFTISRDNATKTVYLQMNSLKPEDTAVYYCNAVYTPYRRSFYYWGQGTQVTVSS | high polyreactivity |
| QVQLVESGGGLVQAGGSLRLSCAASGRTFFYNTMGWYRQAPGKERELVAAITSSGGRTSYADSVKGRFTISRDNAKNTVYLQMNSLKPEDTAVYYCAALYSYYSLYDDYDYWGQGTQVTVSS | high polyreactivity |
| QVQLVESGGGLVQAGGSLRLSCAASGITFSYYAMGWYRQAPGKERELVAAISYTSGSTYYADSVKGRFTISRDNAKNTVYLQMNSLKPEDTAGYYCAARSRWSKQFRYDYWGQGTQVTVSS | high polyreactivity |

---

protocol_summary: yeast display, Sf9 membrane polyspecificity reagent, FACS + sequencing; frameworks hold sequencing errors
property_label: polyreactivity (PSR sort gate)

# example entries with known answers
| biosequence | property_label | measured_result |
| --- | --- | --- |
| QVQLVESGGGLVQAGGSLRLSCAASGRTFARYVMGWYRQAPGKERELVASISNSGGSTYYADSVKGRFTISRDNAKNTVYLQMNSLKPEDTAVYYCARRYYSYTTYRYDYWGQGTQVTVSS | polyreactivity (PSR sort gate) | high polyreactivity |
| QVQLVESWGVLVQAGGSLRLSCAASGSIFTYYTMGWYRPEPGKERDFVARISSGGSTNYADSVKGRFTISRDNAMNTVYLQMNSLKPEDTAVYYCAAVSSYSPYRLTYYYWGQGTQVTVSS | polyreactivity (PSR sort gate) | high polyreactivity |
| QVQLVESGGGLVQAGGSLRLSCAATGIIFTGKSMGWYRQAPGTERELVASITSGDTTNYADSVKGRFTISRDNAKNTVYLQMNSLKPEDTAVYSCAKELQVRQGGDYWGQGTQVTVSS | polyreactivity (PSR sort gate) | low polyreactivity |
| QVQLVESGGGLVQAGGSLRLSCAASGSILSAYDMGLYRKAPGKDRELVAAIHSSGGSTYYADSVKGRFTISRDNAKNTVYLQMNSLKPEDTAVYYCAATSLAGYYQFDYWGQGTQVTVSS | polyreactivity (PSR sort gate) | low polyreactivity |
| QVQLVESGGGLVQAGGSLRLSCAASVYTFKSYAMGWYRQAPGKERELVASISNDGSTNYADSVKGRFTISRDNAKNTVYLQMNSLKPEDTAVYYCNADFYDAPSQWARTGFDYWGQGTQVTVSS | polyreactivity (PSR sort gate) | low polyreactivity |
| QDQLVESGGGLVQAGGSLRLSCAASGSIFKHNDMGWYRQAPGKERELVAAISRSGGSTYYAHSVKGRFTISRDNAKNTVYLLMNSLKPEDTAVYYCNAGRRTARYGYWGQGTQVTVSS | polyreactivity (PSR sort gate) | high polyreactivity |
| QVQLVESGGGLVEAGGSLRLSGAASGSIFRYYSMGWYRQAPGKERELVAAITYSGGTTYYADSVKGRFTISRDNAKNTVYLQMNSLKPEDTAVYYCAATFQANYFSGYYTVYLSDYRGQGTQVTVSS | polyreactivity (PSR sort gate) | low polyreactivity |

Field: next sequence
Which polyreactivity (PSR sort gate) is listed for QVQLVESGGGLVQAGGSLRLSCAASGSTFNWYAMGWYRQAPGKEMELVAAITSTGGSTYADSVKGRFTISRDNAKNTVYLQMNSLKPEDTAVYYCNVDTSSPSRRDYDYWGQGTQVTVSS ?
low polyreactivity

---

protocol_summary: yeast display, Sf9 membrane polyspecificity reagent, FACS + sequencing; frameworks hold sequencing errors
property_label: polyreactivity (PSR sort gate)

Solved cases (4 shown):
| biosequence | polyreactivity (PSR sort gate) |
| --- | --- |
| QVLLVESGGGLVQAGGSLRLSCAASGISIRAKAMGGYRQAPGKVRELVAAITWSGGDPYYADSVKGRFTISRDNAKNTVYLQMNSLKPEDTAVYYCNALQPGLGSPLGEYDYWGQGTQVTVSS | low polyreactivity |
| QVQLVESGGGLVQAGGSLRLSCAASGGTFRLYAMGWYRQAPGKERELVAAISGRGGSTYYADSVKGRFTISRDNAKNTVYLQMNSLKPEDTAVYYCARYRRGKMDYWGQGTQVTVSS | high polyreactivity |
| QVQLVESGGGLVQAGGSLRLTCAASGSTFTYNGMGWYRQAPGKERELVAAITKRGGSTYYADSVKGRFTISRDNAKNTVYLQMNSLKPEETAVYYCAKPAASGFRWDSGYWGQGTQVTLSS | high polyreactivity |
| QFQLVESGGGLVPAGGSLRLSCAASGRIFTGNAMGWSRQAPGKERELVASITYSDGSTYYADSVKGRFTISRDNATNTVYLKMNSLKPEDTAVYYCAADIRWGQGTQVTVSS | low polyreactivity |

GET /values?readout=polyreactivity (PSR sort gate)&item= QVQLVESGGGLVQAGGSLRLSCAASGSIFHWYTMGWYRQAPGKERELVATISAGGSTYYADSVKGRFKISRDNAKNTVYLQMNSLKPEDTAVYYCNRRVHGVYRWRRSDSWGQGTQVTVAS
high polyreactivity

Endpoint output: polyreactivity (PSR sort gate) of QVQLVESGGGLVQAGGSLRLSCAASVRTFNLHAMGCYTQAPGKERELFAAITRSGDSTYYADSVKGSFTISRDKAKKTVYLQMKSLKPEDTAVYYCAKDNVTTPVVKVTFIPLDYWGQGTQVTVSS . Value?
low polyreactivity

Look up polyreactivity (PSR sort gate) for this sequence: QVQHVESGGGLVQAGGSLRLSCAASGRTSYGNTMGWYRQAPGKERELVATISGGGSTNYADSVKGRFTISRDNAKNTVYLQMNSLKPDDTAVYYCAARRYPFPGYRYYYWGQGTQVTVSS
high polyreactivity

---

protocol_summary: yeast display, Sf9 membrane polyspecificity reagent, FACS + sequencing; frameworks hold sequencing errors
property_label: polyreactivity (PSR sort gate)

| biosequence | measured_result |
| --- | --- |
| QVQLVESGGGLVQAGGSHRLTCAASGSTFFAYAIGCYRPAPGTERELVAAISSRGGRTYYADSVKGRFTISRDNAQNTVYLQMNSLKPEDTAVYYCAVGPGLAQSYDYWGQGTQVTVSS | high polyreactivity |
| QVQLVESGGGLVQAGGSLRLSCDASGSIFGKYTMGWYRQAPGKVRELVAAISKRGGSTRYADSVKGRFTISRDNAKNTVYLQMNSLKPEDTAVYYCAAYRYWMYRYQIVNYGYWGQGTQVTVSS | high polyreactivity |
